Assay: yeast display, Sf9 membrane polyspecificity reagent, FACS + sequencing; frameworks hold sequencing errors
measured-quantity: polyreactivity (PSR sort gate)

QVQLVESGGGLVQAGGSLRLICAASGFIFRRYAMGWYRQSPGKERELVAAISSRGGSTYYADSVKGRFTISRDNAKNTVYLQMNSLKPEDTAVYYCAAYDAVTYPFDYWGQGTQVTVSS ... high polyreactivity
QVQLVESGGGLVQAGGSLRLSCAATGITFYPNDMGWYRQAPGKERELVAAITTNDGDTYYADSVKGRFTISRDNAKNTVYLQMNSLKPEDTAVYYCAADSGSTSEYEYWGQGTQVTVSS ... low polyreactivity
QVQLVESGGGLVQAGGSLRLSCAASGRIFRYYAMGWYRQAPGKERELVAAINTSTGSTYYADSVKGRFTISRDNAKNTVYLQMNSLKPEDTAVYYCATGWHYYRSLRGGLAWPGGYWGQGTQVTVSS ... high polyreactivity
QVQLVESGGGLVQAGGSLRLSCAASGRIFVRNAMGWYRQAPGKERELVAGISNAGRTNYADSVKGRFTISRDNAKNTVYLQMNSLKPEDTAVYYCAKRPGYDYDYWGQGTQVTVSS ... high polyreactivity
QVQLVESGGGLVQAGGSLRLSCAASGSIFPAIAKGWYRQAPGTERELVAAISVSGARTYYADSVKGRFTISRDNAKNTVYLQMNSLKPEDTAVYYCAARAAGSQHDYWGQGTQVTVSS ... high polyreactivity
QVQLVESGVGLVQAGVSLRLSCAASVSISTPYTMGWSRPAPGKERELVAAISWIGDTTSYADSVKGRFTISRDNAKNTVYLQMNRLKPEDTAVYYCNAEHRGYDYWGQGTQVTVSS ... low polyreactivity
QVQLVESGGGLVQAGGSLRLSCAASGRIFPGNAMGWYRQAPGKERELVADITSGGSTNYADSVKGRFTISRDNAKNTVYLQMNSLKPEDTAVYYCAVRQIYQTSDHRLQYDYWGQGTQVTVSS ... low polyreactivity
QVQLVESGGGLVQAGGSLRLSCAASGRIFLFYAMGWYRTAPGKERELVAGIRSGGSTNYADSVKGRFTISRDNAKNTVYLQMNSLKQEDTAVYYSAAASYFVYPRLEGYWGQGTQVTVSS ... low polyreactivity

(Q) For the sequence shown here, QVQLVESGGGLVQAGGSLRLSCAASGSTFHVNAMGWYRQAPGKEREFGAVISSSAGRTYYADSVKGRFTISRDNAKNTVYLQMNSLKPEDTAVYYCAAGTFKPYWRKFEYWGQGTQVTVSS , give the reported polyreactivity (PSR sort gate).
(A) high polyreactivity

(Q) Suppose we examine the sequence QVQLVESGGGLVQAGGSLRISCAASGRTFYGYTMGWDRQAPGKERELVAAISRNGASTFYADSVKGRFTISRDNAKNTVYLQMNSLKPEDTAVYYCNARSWRHTDTSFEYWGQGTQVTVSS ; what polyreactivity (PSR sort gate) value has been reported?
(A) high polyreactivity

(Q) # get_value(readout='polyreactivity (PSR sort gate)', item= QVQLVESGGGLVQAGGSLRLSCAASGFTFDFYAMGWNRQAPGKERELVAVISSSGRTYYADSVKGRFTISRDNAKNSVYLQMNSMKPEDTAVYYCDAKDKRGHTYDYWGQGTQVTVSS )
(A) high polyreactivity

----------
Assay: yeast display, Sf9 membrane polyspecificity reagent, FACS + sequencing; frameworks hold sequencing errors
measured-quantity: polyreactivity (PSR sort gate)

Observe how each entry below is paired with its result.
QVQLVESGGGLVQAGGSLRLSCAASGLIFSAYDMGWYRQAPGKERELVASITSGGSTYYADSVKGRFTISRDNAKNTVYLQMNSLKPEDTAVYYCNADGGWYPYRWRYIEGEYWGQGTQVTVSS ... low polyreactivity
QVQLVESGGGLVQAGGSLRLSCAASGRIFQYYAMGWYRQAPGKERELVAAIDQSGDTTYYADSVKGRFTISRDNAKNTVYLQMNSLKPEDTAVYYCAAGYDWAYHWVPQWMYYWGQGTQVTVSS ... low polyreactivity
QVQLVESGGGLVQAGGSLRLSCAASGITFVFYAMGWYRQAPGKERELVATITWRTTRTFYADSVKRRFTISRDNAKNTVYLQMNSLKPEDTAVYYCAAGVNSTTRINDYWGQGTQVTVSS ... low polyreactivity
QVQLVESGGGLVQAGGSLRLSCAASGRTFYAYAMGWYRQAPGKERELVSAISWRGGDTYYADSVKGRFTISRDYAKNTVYLQMHSLIPEDTAFYYCAADFTYTWDAAQGYDYWGQGPQVTVSS ... low polyreactivity
QVQLVESGGGLVQAGGSLRLSCAASVRIFRFYVMGWYRQAPGKERELVAAISKRGASTSYADSVKGRFTISRDNAKNTVYLQMNSLKPEDTAVYYCAASAKRGEMGYWGQGTQVTVSS ... high polyreactivity

(Q) Fill in: polyreactivity (PSR sort gate) of QVQLVESGGGLVQAGGSLRLSCAASGRTLYDYAMEWYRQAPGKERELVAGITSGDSTYYADSVKGRFTISRDNAKNTVDLQMNSLKPEDTAVYYCAADSDTFYYTGYDYDYWGQGTQGTVSS is ___
(A) low polyreactivity

(Q) Would you mind telling me what polyreactivity (PSR sort gate) value was observed for QVQLVESGGGLVQAGGSLRLSCAASGRTFRVYAMGWYRQAPGKEREFVAAISYSGGRTYYADSVKGRFTISRDNAKNTVYLQMNSLKPEDTAVYYCAAKTNRGSYSYDYWGQGTQVTVSS ?
(A) high polyreactivity

(Q) polyreactivity (PSR sort gate) for QVQLVESGGGLVQAGGSLRLSCAASGSTFKRNTMGWYRQAPGKERELVAAISRSGGYTYYADSVKGRFTISRDNAKNTVYLQMNSLNPEDTAVYYCNANVSSYVGSRSYGLSPYDYWGQGTQVTVSS ?
(A) high polyreactivity

Entry source: the nanobody polyreactivity screen of Harvey et al. (2022)
